Below, each of the sequences is paired with its reported protein stability index value.
- Method description: protein stability index of a GFP-peptide fusion (yeast GPS) (PSI 1-4); higher = more stable; sorted into four equal gates, so the index is relative within each strain
- Condition notes: pdr5∆

{"Sequence content": "VIFDASIKDTQNVGQGK [BRN1]", "Readout name": "protein stability index", "Measurement": 2.45}
{"Sequence content": "ETATLIMNELYRMKGGR [SMC3]", "Readout name": "protein stability index", "Measurement": 3.21}
{"Sequence content": "QTTEGYDPKDALKNACN [RPB11]", "Readout name": "protein stability index", "Measurement": 3.28}
{"Sequence content": "CLKRGWGHPTRMLLNLC [BRR2]", "Readout name": "protein stability index", "Measurement": 3.14}
{"Sequence content": "VDFEKFETFLVDVNNKF [SIN4]", "Readout name": "protein stability index", "Measurement": 3.34}

Task item: Tell me the measured protein stability index of RSQDQENPAFLPGTNNN [SEC65] , please.
Reply: 2.75

Task item: // query protein stability index value for entry EDDDIRSRMLPTITLDD [SNF5]
Reply: 3.07

Task item: Any idea what its protein stability index is? The sequence is ENNRLLFECRTCSYVEE [RPB9]
Reply: 3.2

Task item: Param item = SDNKKRSGSNAAASLPS [RPC82] ; retrieve measured protein stability index.
Reply: 3.19

Task item: Form field: reported protein stability index of TDLRFQSSAIGALQESV [HHT1]
Reply: 1.41

Task item: Field request: protein stability index | item: ELAGDEELEAEQIDVFS [PRP8]
Reply: 3.27

Task item: What value of protein stability index has been reported for the following sequence? FKIWHGEINKICMESLF [PCI8]
Reply: 1.46

Task item: Query: protein stability index; subject: IIVKILYYRPHINKKSQ [GRR1]
Reply: 2.63

Task item: # lookup: protein stability index of GQPVNDFIDTATRHVLM [RPS3]
Reply: 3.02

Task item: Would you kindly share the measured protein stability index for VFSHAQTAVTCESCSTV [RPS27B] ?
Reply: 2.46

###

- Method description: protein stability index of a GFP-peptide fusion (yeast GPS) (PSI 1-4); higher = more stable; sorted into four equal gates, so the index is relative within each strain
- Condition notes: doa10∆
protein stability index reference
Would you mind answering with just the numeric figure?

Example sequences with recorded protein stability index:
{"Sequence content": "MADLQKQENSSRFTNVS [YMR153W/NUP53]", "protein stability index": 3.23}
{"Sequence content": "LDDPVLNAIVSKNSPAE [YJR042W/NUP85]", "protein stability index": 2.9}

Task item: Quick one: protein stability index for ECPVGEFLINEGTPINN [RPN14] ?
Reply: 2.99

Task item: Which value of protein stability index has been reported for FVDDMLRDYRFEDATRE [SNF5] in the records?
Reply: 2.92

Task item: Dear colleague, I am looking for the recorded protein stability index of the following sequence: KKLDYVLALKVEDFLER [RPS9A]
Reply: 1.76

Task item: What does the record list as protein stability index for QTNIWEENWDDVEVDDD [SEM1] ?
Reply: 3.27

Task item: Query (sequence): DRKNRAPPQRPRFNRDN [RPS26B] ; field requested: protein stability index
Reply: 1.87
